- assayOverview: in vitro
- conditionNotes: male, CD-1, mouse, microsomes
measurementType: half-life (h)
// note: answer is a bare numeric in h

*Q* half-life lookup needed for COc1ccc(NC(=O)c2cccc(-c3nc(NC(P(=O)(O)O)P(=O)(O)O)c4ccsc4n3)c2)cc1F , thanks.
*A* 2.13

---

- targetUnderTest: recombinant human GGPPS (Homo sapiens (Human))
- Sequence (O95749 whole entry): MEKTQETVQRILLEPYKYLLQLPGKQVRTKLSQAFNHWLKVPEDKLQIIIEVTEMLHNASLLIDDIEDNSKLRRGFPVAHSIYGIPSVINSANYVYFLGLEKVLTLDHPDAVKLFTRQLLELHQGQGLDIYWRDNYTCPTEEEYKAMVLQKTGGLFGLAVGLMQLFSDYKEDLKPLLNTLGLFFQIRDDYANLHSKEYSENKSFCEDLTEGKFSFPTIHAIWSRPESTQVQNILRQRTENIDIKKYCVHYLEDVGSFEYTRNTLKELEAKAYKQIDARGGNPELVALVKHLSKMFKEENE
- assayOverview: In vitro hGGPPS inhibition assay
- conditionNotes: wild-type hGGPPS enzyme, average of n ≥ 3 determinations
Measured IC50, listed per entry.
Your answer should be a plain number; it is taken to be in µM.

Solved entries:
# compound, unitDescriptor, IC50
rows = [
    ("O=C(Nc1ccccc1)c1cccc(-c2nc(NC(P(=O)(O)O)P(=O)(O)O)c3ccsc3n2)c1", "µM", 0.053),
    ("COc1ccc(C(=O)Nc2cccc(-c3nc(NC(P(=O)(O)O)P(=O)(O)O)c4ccsc4n3)c2)cc1", "µM", 0.085),
    ("O=P(O)(O)C(Nc1nc(-c2ccccc2)nc2sccc12)P(=O)(O)O [Compound C-5, reference compound]", "µM", 0.082),
    ("O=C(Nc1cccc(-c2nc(NC(P(=O)(O)O)P(=O)(O)O)c3ccsc3n2)c1)c1ccccc1", "µM", 0.064),
    ("COc1ccc(NC(=O)c2cccc(-c3nc(NC(P(=O)(O)O)P(=O)(O)O)c4ncsc4n3)c2)cc1F", "µM", 0.065),
]

Proceeding to the next compound to report its IC50.
*Q* Can you share its IC50? I mean this compound: COc1ccc(NC(=O)c2cccc(-c3nc(NC(P(=O)(O)O)P(=O)(O)O)c4sccc4n3)c2)cc1F
*A* 0.085

---

- Test system: RPMI-8226
- assayOverview: MM cell viability assay (MTS proliferation)
- Assay type: cell-based
- conditionNotes: Homo sapiens, 72 hours, average of n ≥ 8 determinations, read-out: MM cells EC50, RPMI-8226
measurementType: pEC50
API: returns pEC50 as number; meaning -log10 of concentration in mol/L.

# molecule, measValue
measured = [
    ("COc1ccc(NC(=O)c2cccc(-c3nc(NC(P(=O)(O)O)P(=O)(O)O)c4ccsc4n3)c2)cc1F [Compound I-37]", 6.82),
]

*Q* // lookup pEC50 for COc1ccc(NC(=O)c2cccc(-c3nc(NC(P(=O)(O)O)P(=O)(O)O)c4sccc4n3)c2)cc1F [Compound I-42]
*A* 6.70

*Q* Reported pEC50, molecule COc1ccc(NC(=O)c2cccc(-c3nc(NC(P(=O)(O)O)P(=O)(O)O)c4ncsc4n3)c2)cc1F [Compound I-43] : ____
*A* 6.85

*Q* Can you share its pEC50? I mean this molecule: COc1ccc(C(=O)Nc2cccc(-c3nc(NC(P(=O)(O)O)P(=O)(O)O)c4ccsc4n3)c2)cc1 [Compound I-5]
*A* 6.42

*Q* Form field: reported pEC50 of O=C(Nc1ccccc1)c1cccc(-c2nc(NC(P(=O)(O)O)P(=O)(O)O)c3ccsc3n2)c1 [Compound I-6]
*A* 6.96

*Q* Recorded pEC50 for O=C(Nc1cccc(-c2nc(NC(P(=O)(O)O)P(=O)(O)O)c3ccsc3n2)c1)c1ccccc1 [Compound I-13] , please?
*A* 7.00

*Q* If you can, please state the reported pEC50 value of Cc1ccc(C(=O)Nc2cccc(-c3nc(NC(P(=O)(O)O)P(=O)(O)O)c4ccsc4n3)c2)cc1 [Compound I-18] .
*A* 6.92

---

- targetUnderTest: recombinant human GGPPS (Homo sapiens (Human))
- assayOverview: In vitro hGGPPS inhibition assay
- Format: biochemical
measurementType: Ratio of hFPPS IC50 vs hGGPPS IC50
Answer with a number only.

Use these answered entries as a reference point.
# smi, measValue
data = [
    ("O=C(Nc1ccccc1)c1cccc(-c2nc(NC(P(=O)(O)O)P(=O)(O)O)c3ccsc3n2)c1", 57),
    ("O=C(Nc1cccc(-c2nc(NC(P(=O)(O)O)P(=O)(O)O)c3ccsc3n2)c1)c1ccccc1", 31),
]

Next up:
*Q* Request: Ratio of hFPPS IC50 vs hGGPPS IC50, test system recombinant human GGPPS (Homo sapiens (Human)), entry COc1ccc(C(=O)Nc2cccc(-c3nc(NC(P(=O)(O)O)P(=O)(O)O)c4ccsc4n3)c2)cc1
*A* 12

---

- targetUnderTest: UniProt:P14324
- Sequence (P14324 whole entry): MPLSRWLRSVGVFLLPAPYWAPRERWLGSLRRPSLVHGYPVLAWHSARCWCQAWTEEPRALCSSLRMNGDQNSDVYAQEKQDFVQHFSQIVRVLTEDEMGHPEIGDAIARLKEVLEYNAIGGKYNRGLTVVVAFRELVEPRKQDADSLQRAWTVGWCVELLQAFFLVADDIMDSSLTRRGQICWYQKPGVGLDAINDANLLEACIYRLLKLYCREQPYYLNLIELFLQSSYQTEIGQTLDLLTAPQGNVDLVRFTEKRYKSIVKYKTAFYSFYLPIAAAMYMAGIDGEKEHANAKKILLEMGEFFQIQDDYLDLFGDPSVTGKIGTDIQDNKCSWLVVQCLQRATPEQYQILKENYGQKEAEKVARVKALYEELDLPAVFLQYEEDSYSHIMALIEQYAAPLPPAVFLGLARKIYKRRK
- conditionNotes: read-out: hFPPS IC50
Entries and their measured log10 of IC50 follow.
Heads up, the numbers here are log10 of IC50 in nM units.

Answered examples (5):
# molecule, log10 of IC50
data = [
    ("O=P(O)(O)C(Nc1ncnc2sc(-c3ccc(C(F)(F)F)cc3)cc12)P(=O)(O)O [Compound C-12, reference compound]", 1.36),
    ("O=C(Nc1cccc(-c2nc(NC(P(=O)(O)O)P(=O)(O)O)c3ccsc3n2)c1)c1ccccc1", 3.30),
    ("O=C(Nc1ccccc1)c1cccc(-c2nc(NC(P(=O)(O)O)P(=O)(O)O)c3ccsc3n2)c1", 3.48),
    ("O=P(O)(O)C(Nc1ncnc2sc(-c3ccc(OC4CC4)cc3)cc12)P(=O)(O)O [Compound C-13, reference compound]", 1.15),
    ("COc1ccc(C(=O)Nc2cccc(-c3nc(NC(P(=O)(O)O)P(=O)(O)O)c4ccsc4n3)c2)cc1", 3.00),
]

*Q* Please report the recorded log10 of IC50 for O=P(O)(O)C(Nc1ncnc2sc(-c3ccccc3)cc12)P(=O)(O)O [Compound C-10, reference compound] .
*A* 2.30

---

Catalogue of Ratio of hFPPS IC50 vs hGGPPS IC50 readings, one per entry.
- targetUnderTest: recombinant human GGPPS (Homo sapiens (Human))
- assayOverview: In vitro hGGPPS inhibition assay
- Format: biochemical

Illustrative cases are given below, each with its answer.
# compound, Ratio of hFPPS IC50 vs hGGPPS IC50
rows = [
    ("O=P(O)(O)C(Nc1ncnc2sc(-c3ccc(C(F)(F)F)cc3)cc12)P(=O)(O)O [Compound C-12, reference compound]", ">4 × 10^−5"),
    ("O=P(O)(O)C(Nc1ncnc2sc(-c3ccc(OC4CC4)cc3)cc12)P(=O)(O)O [Compound C-13, reference compound]", ">7 × 10^−5"),
]

Here's the next entry for you.
*Q* Lab note: need Ratio of hFPPS IC50 vs hGGPPS IC50 for O=P(O)(O)C(Nc1nc(-c2ccccc2)nc2sccc12)P(=O)(O)O [Compound C-5, reference compound] on recombinant human GGPPS (Homo sapiens (Human)), anyone have it?
*A* ~7

Provenance of the data: patent US11279719B2
